Target: Hmlalpha2 (UniProt P0CY09)
Sequence: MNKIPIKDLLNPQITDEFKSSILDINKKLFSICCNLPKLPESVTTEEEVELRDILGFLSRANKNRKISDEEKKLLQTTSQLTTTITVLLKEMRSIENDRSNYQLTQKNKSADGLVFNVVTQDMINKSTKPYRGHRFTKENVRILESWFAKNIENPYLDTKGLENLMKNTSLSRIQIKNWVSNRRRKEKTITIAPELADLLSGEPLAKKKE
Assay: PBM E-score (8-mer binding enrichment) (E-score (-0.5 to 0.5)); higher = stronger / more preferred TF binding
Settings: protein concentration: 200 nM; construct: GST-full length
Over roughly 33,000 sequences, “E-score (-0.5 to 0.5)” has its median near -0.04; the highest 2% begin near 0.36. The sample as a whole holds a higher share of the highest values than the screen did.
Outcome label depends on PBM E-score relative to 0.3: at/above gives class 1, below gives class 0.

q: Check if PBM E-score >= 0.3 (inclusive). Item: "CAACATGA"
a: class 1

---

Entries annotated with measured PBM E-score
Molecular target: Hmlalpha2 (UniProt P0CY09)
Sequence: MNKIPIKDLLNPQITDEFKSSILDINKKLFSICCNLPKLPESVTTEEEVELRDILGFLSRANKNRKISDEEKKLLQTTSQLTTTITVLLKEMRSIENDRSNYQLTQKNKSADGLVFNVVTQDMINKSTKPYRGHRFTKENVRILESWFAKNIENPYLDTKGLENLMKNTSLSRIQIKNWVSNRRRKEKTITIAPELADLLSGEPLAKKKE
Test: PBM E-score (8-mer binding enrichment) (E-score (-0.5 to 0.5)); higher = stronger / more preferred TF binding
Conditions: protein concentration: 200 nM; construct: GST-full length
The full ranking holds about 33,000 sequences; the median of “E-score (-0.5 to 0.5)” is about -0.04, and the highest 2% start at about 0.36. For the sample, the highest values were picked, then their nearest neighbours and some sequences at random.
Just the number.

These solved cases illustrate the format of a correct answer.
GACACGTC :: 0.2
GAACACGC :: 0.299
CAACACGC :: 0.367
CACACGTC :: 0.166
GATTAAAC :: 0.155

q: # assay system Hmlalpha2 (UniProt P0CY09): give PBM E-score of "AAAACGTT"
a: 0.0264

q: Under Hmlalpha2 (UniProt P0CY09), report PBM E-score for "AACACAGG"
a: 0.247

---

Target: Hmlalpha2 (UniProt P0CY09)
Sequence: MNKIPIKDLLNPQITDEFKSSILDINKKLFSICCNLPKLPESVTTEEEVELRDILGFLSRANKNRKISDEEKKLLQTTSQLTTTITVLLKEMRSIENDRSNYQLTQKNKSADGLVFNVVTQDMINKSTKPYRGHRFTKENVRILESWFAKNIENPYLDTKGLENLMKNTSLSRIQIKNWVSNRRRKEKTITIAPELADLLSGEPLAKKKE
Test: PBM E-score (8-mer binding enrichment) (E-score (-0.5 to 0.5)); higher = stronger / more preferred TF binding
Settings: protein concentration: 200 nM; construct: GST-full length
In all, about 33,000 sequences were measured (“E-score (-0.5 to 0.5)”: median about -0.04, highest 2% from about 0.36 on). The entries come from a sample that favours the highest values as a whole.
Parameter PBM E-score: see the listing below.

ACTTACAT :: 0.43
GCATTGAC :: 0.0683
ATTTAACG :: 0.355
GCACGCAC :: -0.213

q: Hello, please tell me recorded PBM E-score for this one: "ATGTAAGG"
a: 0.313

q: Return reported PBM E-score. Input sequence: "CCTGTAAC"
a: 0.093

q: For the sequence "AATAACAA" , report PBM E-score.
a: 0.267

q: Quickly give me recorded PBM E-score for "ACTTACAA"
a: 0.29

q: Input "CATACACA" , output reported PBM E-score.
a: 0.336

q: Fill in PBM E-score for record "ATTGAGCA"
a: 0.0182

q: // Input: "GCTTGTAC" . Output its PBM E-score only.
a: 0.243

q: Item "ACTTACAC" : provide PBM E-score
a: 0.378

q: Return value of PBM E-score for input "GGCAACAA" , no commentary.
a: 0.0607

q: Specify PBM E-score for "CAGCAGCG" and stop.
a: 0.0849

q: // Input: "AGAGAGCA" . Output its PBM E-score only.
a: -0.234

q: Name the recorded PBM E-score of the item "ATACCTGA" in your answer.
a: 0.0295

q: Report measured PBM E-score; entry is "CCTGTAAG"
a: -0.00273

q: Read the entry "ATACAGAA" and write its reported PBM E-score.
a: 0.199

q: Quote PBM E-score reported for "AATTAGAA" please.
a: 0.0299

q: Recall and state the measured PBM E-score for "AACGAACC" .
a: 0.036

q: Recall and state the measured PBM E-score for "ACACGCAA" .
a: 0.35

q: Tell me its PBM E-score given "CCGGACAA" as the entry.
a: 0.0112

q: Note PBM E-score for the sequence shown: "GCTTGTAA"
a: 0.411

q: Output PBM E-score of "AATATACA"
a: 0.34

---

Target: Hmlalpha2 (UniProt P0CY09)
Sequence: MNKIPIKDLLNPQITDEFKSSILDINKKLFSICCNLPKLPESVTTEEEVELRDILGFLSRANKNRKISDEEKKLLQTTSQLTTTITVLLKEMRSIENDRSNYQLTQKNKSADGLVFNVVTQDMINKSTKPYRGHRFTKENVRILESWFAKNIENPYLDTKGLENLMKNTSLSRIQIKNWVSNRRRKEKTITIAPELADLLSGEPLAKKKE
Test: PBM E-score (8-mer binding enrichment) (E-score (-0.5 to 0.5)); higher = stronger / more preferred TF binding
Settings: protein concentration: 200 nM; construct: GST-full length
In all, about 33,000 sequences were measured (“E-score (-0.5 to 0.5)”: median about -0.04, highest 2% from about 0.36 on). This is one part of a sample in which the highest values are shown more often than they occur.
Readout Kind: PBM E-score
API note: the answer field is a bare number with no unit suffix.

q: Identify measured PBM E-score corresponding to "ACAGTGTA"
a: 0.244

q: Return reported PBM E-score. Input sequence: "ATTAGTAA"
a: 0.206

q: Give a short answer stating reported PBM E-score for "CTGTGTAC" .
a: 0.35

---

Target: Hmlalpha2 (UniProt P0CY09)
Sequence: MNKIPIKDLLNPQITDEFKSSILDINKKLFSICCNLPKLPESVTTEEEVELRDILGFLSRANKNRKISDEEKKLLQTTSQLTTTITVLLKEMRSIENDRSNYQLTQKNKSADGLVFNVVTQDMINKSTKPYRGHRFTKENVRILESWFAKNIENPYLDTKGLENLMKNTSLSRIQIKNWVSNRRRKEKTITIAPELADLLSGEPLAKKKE
Test: PBM E-score (8-mer binding enrichment) (E-score (-0.5 to 0.5)); higher = stronger / more preferred TF binding
Settings: protein concentration: 200 nM; construct: GST-full length
Over roughly 33,000 sequences, “E-score (-0.5 to 0.5)” has its median near -0.04; the highest 2% begin near 0.36. Shown is part of a subset that was picked to be rich in the highest values.
Classification field: enter Satisfied for PBM E-score values not below 0.09, Not satisfied for values below it.

Would you please look over these solved cases?
ACAGGGAA :: Not satisfied
ACATGTCC :: Satisfied

# input for lookup
q: Hi team, for "AGGGCCCA" , is the recorded PBM E-score at or above 0.09?
a: Not satisfied

---

Target: Hmlalpha2 (UniProt P0CY09)
Sequence: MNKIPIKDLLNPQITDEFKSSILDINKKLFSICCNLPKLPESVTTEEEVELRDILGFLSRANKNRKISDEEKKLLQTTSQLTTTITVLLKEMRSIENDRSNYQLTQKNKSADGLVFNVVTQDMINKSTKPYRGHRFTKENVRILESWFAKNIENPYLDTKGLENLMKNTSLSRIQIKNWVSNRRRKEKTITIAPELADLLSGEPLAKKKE
Assay: PBM E-score (8-mer binding enrichment) (E-score (-0.5 to 0.5)); higher = stronger / more preferred TF binding
Settings: protein concentration: 200 nM; construct: GST-full length
In all, about 33,000 sequences were measured (“E-score (-0.5 to 0.5)”: median about -0.04, highest 2% from about 0.36 on). What follows is part of a selection rich in the highest values, with near analogues and random picks from the rest.
Parameter PBM E-score: see the listing below.

The cases that follow already have their PBM E-score on record.
GTACAACA :: 0.395
AGTATGTA :: 0.394

Now, please, on to the next sequence.
q: // Input: "AACACGCA" . Output its PBM E-score only.
a: 0.412
